Data credit: ChEMBL document CHEMBL2331411

Reported pKi is given for each of the following compounds.
Assay: Inhibition of Enterococcus faecalis DNA gyrase subunit B using ATP as substrate assessed as release of inorganic phosphate incubated for 10 mins prior to substrate addition measured after 30 mins by spectrophotometric analysis
pKi: −log10 of the molar value.

Compound: CCc1[nH]c2nc(Sc3cnc4[nH][nH]c(=O)c4c3)nc(N3CC[C@@H](N)C3)c2c1Cl
Limit operator: =
pKi: 8.22
//
Compound: CCc1[nH]c2nc(Sc3cnc4nccnc4c3)nc(N3CC(N)C3)c2c1Cl
Limit operator: =
pKi: 8.40
//
Compound: CCc1[nH]c2nc(Sc3ccc4c(N5CCC(N)C5)cc(C(=O)O)nc4c3)nc(N3CC[C@@H](N)C3)c2c1Cl (stereo not given in full)
Limit operator: >
pKi: 9.00
//
Compound: CCc1[nH]c2nc(Sc3cnc4nccnc4c3)nc(N3C[C@H]4CCCN[C@H]4C3)c2c1Cl
Limit operator: =
pKi: 8.05
//
Compound: CCc1[nH]c2nc(Sc3ccc4ccc(C(=O)O)nc4c3)nc(N3CC[C@@H](N)C3)c2c1Cl
Limit operator: >
pKi: 9.00
//
Compound: CCc1[nH]c2nc(Sc3ccc4cncnc4c3)nc(N3CC[C@@H](N)C3)c2c1Cl
Limit operator: >
pKi: 9.00
//
Compound: CCc1[nH]c2nc(Sc3cnc4cccnc4c3)nc(N3CC[C@@H](N)C3)c2c1Cl
Limit operator: >
pKi: 9.00
//
Compound: CCc1[nH]c2nc(Sc3cccnc3)nc(Cl)c2c1C(F)F
Limit operator: =
pKi: 5.77
//
Compound: CCc1[nH]c2nc(Sc3ccc4cc5c(nc4c3)C(=O)OC5)nc(N3CC[C@@H](N)C3)c2c1Cl
Limit operator: >
pKi: 9.00
//
Compound: CCc1[nH]c2nc(Sc3ccc4c(c3)C(=O)NC4)nc(N3CC[C@@H](N)C3)c2c1Cl
Limit operator: =
pKi: 8.15

###

Experiment: Inhibition of Acinetobacter baumannii DNA topoisomerase 4 subunit B using ATP as substrate assessed as release of inorganic phosphate incubated for 10 mins prior to substrate addition measured after 30 mins by spectrophotometric analysis
Quantity: Ki (nM)

Smiles entry: CCc1[nH]c2nc(Sc3cccnc3)nc(Cl)c2c1Cl
Reported result: 2000

###

Assay: Inhibition of Enterococcus faecalis DNA gyrase subunit B using ATP as substrate assessed as release of inorganic phosphate incubated for 10 mins prior to substrate addition measured after 30 mins by spectrophotometric analysis
pKi: −log10 of the molar value.
Measured pKi, listed per entry for reference.

Smiles entry: CCc1[nH]c2nc(Sc3cccnc3)nc(Cl)c2c1Br
Limit operator: =
pKi: 6.52
--
Smiles entry: CCc1[nH]c2nc(Sc3ccc4ccc[n+]([O-])c4c3)nc(N3CC[C@@H](N)C3)c2c1Cl
Limit operator: >
pKi: 9.00
--
Smiles entry: CCc1[nH]c2nc(Sc3cnc4nccnc4c3)nc(N3CC[C@@H](N)C3)c2c1Cl
Limit operator: =
pKi: 8.70
--
Smiles entry: CCc1[nH]c2nc(Sc3ccc4cccnc4c3)nc(N3CC[C@@H](N)C3)c2c1Cl
Limit operator: =
pKi: 8.40
--
Smiles entry: CCc1[nH]c2nc(Sc3cncnc3)nc(N3CC[C@@H](N)C3)c2c1Cl
Limit operator: =
pKi: 8.40

###

Test: Inhibition of Enterococcus faecalis DNA gyrase subunit B using ATP as substrate assessed as release of inorganic phosphate incubated for 10 mins prior to substrate addition measured after 30 mins by spectrophotometric analysis
pKi: −log10 of the molar value.
Entries annotated with measured pKi
Quantity: pKi

Molecule: CCc1[nH]c2nc(Sc3cnc4cccnc4c3)nc(N3CC4C(N)C4C3)c2c1Cl (stereo not given)
Limit operator: =
Reported result: 9.00

Molecule: CCc1[nH]c2nc(Sc3cccnc3)nc(Cl)c2c1Cl
Limit operator: =
Reported result: 6.40

Molecule: CCc1[nH]c2nc(Sc3cncnc3)nc(N3CC4C(N)C4C3)c2c1Cl (stereo not given)
Limit operator: =
Reported result: 8.30

Molecule: CCc1[nH]c2nc(Sc3cnc4nccnc4c3)nc(N3C[C@H]4CN[C@H]4C3)c2c1Cl
Limit operator: >
Reported result: 9.00

Molecule: CCc1[nH]c2nc(Sc3cccnc3)nc(Cl)c2c1C(C)=O
Limit operator: =
Reported result: 5.70

Molecule: CCc1[nH]c2nc(Oc3cncnc3)nc(N3CC4C(N)C4C3)c2c1Cl (stereo not given)
Limit operator: >
Reported result: 9.00

Molecule: CCc1[nH]c2nc(Sc3cccnc3)nc(OC)c2c1C=O
Limit operator: =
Reported result: 6.70

Molecule: CCc1[nH]c2nc(Sc3cnc4nccnc4c3)nc(N3C[C@H]4CCN[C@H]4C3)c2c1Cl
Limit operator: =
Reported result: 8.22

Molecule: CCc1cc2c(Cl)nc(Sc3cccnc3)nc2[nH]1
Limit operator: <
Reported result: 4.30

Molecule: CCc1[nH]c2nc(Sc3ccc4[nH]cc(C(=O)O)c(=O)c4c3)nc(N3CC[C@@H](N)C3)c2c1Cl
Limit operator: >
Reported result: 9.00
